biological target: Neu5Gc(a2-3)Gal(b1-4)GlcNAc; assay: glycan array binding signal (z-score within array); higher = stronger binding; details: glycan notation: IUPAC condensed, linker removed
About 410 targets per protein were measured; listed, in parts, are those with the strongest signals and a random draw of the rest.
measured_attribute: glycan array binding signal (z-score)
The answer should be a number; do not append a unit.

[
  {
    "binder": "chitinase 3-like protein 2 (Homo sapiens) (protein) YKLVCYFTQWSQDRQEPGKFTPENIDPFLCSHLIYSFASIENNKVIIKDKSEVMLYQTINSLKTKNPKLKILLSIGGYLFGSKGFHPMVDSSTSRLEFINSIILFLRNHNFDGLDVSWIYPDQKENTHFTVLIHELAEAFQKDFTKSTKERLLLTAGVSAGRQMIDNSYQVEKLAKDLDFINLLSFDFHGSWEKPLITGHNSPLSKGWQDRGPSSYYNVEYAVGYWIHKGMPSEKVVMGIPTYGHSFTLASAETTVGAPASGPGAAGPITESSGFLAYYEICQFLKGAKITRLQDQQVPYAVKGNQWVGYDDVKSMETKVQFLKNLNLGGAMIWSIDMDDFTGKSCNQGPYPLVQAVKRSLGSL",
    "val": 0.093
  }
]

Now look at this entry.
Respond only with glycan array binding signal (z-score) recorded for MFG-E8 (Homo sapiens), Q08431 (protein) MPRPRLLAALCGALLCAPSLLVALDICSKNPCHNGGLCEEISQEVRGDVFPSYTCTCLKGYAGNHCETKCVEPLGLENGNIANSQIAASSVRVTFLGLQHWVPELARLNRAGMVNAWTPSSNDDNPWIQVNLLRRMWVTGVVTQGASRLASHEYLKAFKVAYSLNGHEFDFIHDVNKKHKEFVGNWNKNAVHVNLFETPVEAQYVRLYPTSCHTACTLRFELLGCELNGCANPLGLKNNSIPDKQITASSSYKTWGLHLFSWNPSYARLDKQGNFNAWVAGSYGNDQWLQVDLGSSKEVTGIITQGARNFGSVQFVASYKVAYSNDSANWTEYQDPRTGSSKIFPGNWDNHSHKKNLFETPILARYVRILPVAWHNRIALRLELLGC 1
